assay: in vivo; details: mouse, brain/plasma, po, 10 mg/kg
Description: Ratio of drug level in brain to plasma of mouse at 10 mg/kg, po after 1 hr
reported-endpoint: Kp at 1 h

// solved cases for Kp at 1 h follow
{"columns": ["structure-string", "reported-result"],
 "data": [
  ["COc1ccccc1-c1ccc(NS(=O)(=O)c2ccc(C)cc2)nn1", 0.052],
  ["Cc1ccc(S(=O)(=O)Nc2ccc(-c3ccccc3N3CCCCC3)nn2)cc1", 0.282],
  ["Cc1ccc(S(=O)(=O)Nc2ccc(-c3ccccc3N3CCOCC3)nn2)cc1", 0.076],
  ["Cc1ccc(S(=O)(=O)Nc2ccc(-c3cccc4cccnc34)nn2)cc1", 0.104],
  ["CN(C)c1cccc(S(=O)(=O)Nc2ccc(-c3ccccc3N3CCCC3)nn2)c1", 0.162]
]}

I = Cc1ccc(S(=O)(=O)Nc2ccc(-c3ccccc3N3CCCC3)nn2)cc1
II = O=C(O)c1cc(-c2ccc(Cl)c(OC3CC3)c2)ncn1
QUERY: For this pair, I and II , which shows a numerically higher Kp at 1 h? Selection: enter the item's label.
RESULT: I
(I: 0.235, II: 0.004)

----------
assay: Plasma concentration in mouse at 10 mg/kg, po after 1 hr; type: ADME, organism-based
reported-endpoint: concentration at 1 h (µg/mL)

{"columns": ["structure-string", "reported-result"],
 "data": [
  ["Cc1ccc(S(=O)(=O)Nc2ccc(-c3ccccc3N3CCCCC3)nn2)cc1", 0.808],
  ["Cc1ccc(S(=O)(=O)Nc2ccc(-c3ccccc3N(C)C)nn2)cc1", 0.185],
  ["Cc1ccc(S(=O)(=O)Nc2ccc(-c3ccccc3N3CCCC3)nn2)cc1", 0.215],
  ["Cc1ccc(S(=O)(=O)Nc2ccc(-c3ccccc3N3CCOCC3)nn2)cc1", 0.931],
  ["O=C(O)c1cc(-c2ccc(Cl)c(OC3CC3)c2)ncn1", 49.1],
  ["COc1ccccc1-c1ccc(NS(=O)(=O)c2ccc(C)cc2)nn1", 2.52]
]}

1 = Cc1ccc(S(=O)(=O)Nc2ccc(-c3cccc4cccnc34)nn2)cc1
2 = CN(C)c1cccc(S(=O)(=O)Nc2ccc(-c3ccccc3N3CCCC3)nn2)c1
QUERY: Look at 1 and 2 . Which one has the lower recorded concentration at 1 h number? Select an item and report its label.
RESULT: 2

----------
pIC50: −log10 of the molar value.
This document collects pIC50 values reported for Kynurenine 3-monooxygenase (Mus musculus).
reported-endpoint: pIC50

Examples with their reported pIC50 follow.
{"columns": ["structure-string", "pIC50"],
 "data": [
  ["Cc1ccc(S(=O)(=O)Nc2ccc(-c3cccc(N(C)C)c3)nn2)cc1", 7.08],
  ["Cc1ccc(S(=O)(=O)Nc2ccc(-c3cccc4ccncc34)nn2)cc1", 7.33],
  ["Cc1ccc(S(=O)(=O)Nc2ccc(-c3ccccc3N3CCOCC3)nn2)cc1", 8.41]
]}

a = CN(C)c1cccc(S(=O)(=O)Nc2ccc(-c3ccccc3N3CCCC3)nn2)c1
b = Cc1ccc(S(=O)(=O)Nc2ccc(-c3cccc4cccnc34)nn2)cc1
c = CN(C)c1cccc(S(=O)(=O)Nc2ccc(-c3cccc(Cl)c3)nn2)c1
d = Cc1ccc(S(=O)(=O)Nc2ccc(-c3ccccc3N3CCCC3)nn2)cc1
e = Cc1ccc(S(=O)(=O)Nc2ccc(-c3ccc(N(C)C)cc3)nn2)cc1
QUERY: List from greatest to least pIC50. Reply with the labels, ordered as the question asks.
RESULT: d, a, b, c, e
